experiment: Dissociation constant pKa (CO2H) was evaluated; type: physicochemical
measured-attribute: pKa
// response body must contain only the number

Entry O=C(O)C1CCCN(CCC=C(c2ccccc2)c2ccccc2)C1 (stereo unspecified) ; pKa = 3.32

----------
experiment: Dissociation constant pKa (N) was evaluated; assay type: physicochemical
measured-attribute: pKa
Answer using only a numeral; do not append any unit.

// O=C(O)C1CCCN(CCC=C(c2ccccc2)c2ccccc2)C1 (stereo unspecified) : pKa value = 9.36

This collection of values is drawn from ChEMBL document CHEMBL1122999.
